Test system: sorghum
Protocol Text: Herbicidal activity test against upland field weeds (foliar treatment test)
Type: in vivo
Condition: 50 g ai/ha, scale 0-100
Property: Foliar treatment herbicidal activity, Sorghum

>  <Molecule>
Cn1cnc(COCc2nc(C(F)F)ccc2C(=O)Nc2nnnn2C)n1

>  <Measured Number>
5

$$$$
>  <Molecule>
Cn1nnnc1COc1nc(C(F)(F)F)cc(Cl)c1C(=O)Nc1nnnn1C

>  <Measured Number>
0

$$$$
>  <Molecule>
C=Cc1cc(C(=O)Nc2nnnn2C)c(OCc2nnnn2C)nc1C(F)(F)F

>  <Measured Number>
0

$$$$
>  <Molecule>
CCN(Cc1nnn(C)n1)Cc1nc(C(F)(F)F)ccc1C(=O)Nc1nnnn1C

>  <Measured Number>
0

$$$$
>  <Molecule>
CCOC(=O)OC(C)N(C(=O)c1ccc(C(F)(F)F)nc1COCc1nnn(C)n1)c1nnnn1C (centres unmarked)

>  <Measured Number>
70

$$$$
>  <Molecule>
CCON(Cc1nnn(C)n1)c1nc(C(F)(F)F)ccc1C(=O)Nc1nnnn1C

>  <Measured Number>
0

$$$$
>  <Molecule>
C#CCN(Cc1nnn(C)n1)c1nc(C(F)(F)F)ccc1C(=O)Nc1nnnn1C

>  <Measured Number>
0

$$$$
>  <Molecule>
Cn1nnnc1NC(=O)c1ccc(C(F)(F)F)nc1COCc1nnn(C(F)F)n1

>  <Measured Number>
0

$$$$

* * *

Property: Foliar treatment phytotoxicity, Corn; scope: individual compounds
System: corn
Protocol Text: Phytotoxicity test for upland field crops (foliar treatment test)
Assay type: in vivo
Design: key: 0 (no harm); 9 (complete withered)
Condition: 100 g ai/ha, Corn (14 days after treatment)
Property: Foliar treatment phytotoxicity, Corn

>  <Compound>
Cn1nnnc1NC(=O)c1ccc(C(F)(F)F)nc1Sc1nnnn1C

>  <Test Target>
corn

>  <Property>
Foliar treatment phytotoxicity, Corn

>  <Result>
0

$$$$
>  <Compound>
COC(=O)OC(C)N(C(=O)c1ccc(C(F)(F)F)nc1CSCc1nnn(C)n1)c1nnnn1C (centres unmarked)

>  <Test Target>
corn

>  <Property>
Foliar treatment phytotoxicity, Corn

>  <Result>
0

$$$$
>  <Compound>
Cc1nc(COCc2nc(C(F)(F)F)ccc2C(=S)Nc2nnnn2C)nn1C

>  <Test Target>
corn

>  <Property>
Foliar treatment phytotoxicity, Corn

>  <Result>
2

$$$$
>  <Compound>
CON(Cc1nnn(C)n1)Cc1nc(C(F)(F)F)ccc1C(=O)Nc1nnnn1C

>  <Test Target>
corn

>  <Property>
Foliar treatment phytotoxicity, Corn

>  <Result>
1

$$$$
>  <Compound>
CCCn1nnnc1NC(=O)c1ccc(C(F)(F)F)nc1COCc1nc(C(F)(F)F)n(C)n1

>  <Test Target>
corn

>  <Property>
Foliar treatment phytotoxicity, Corn

>  <Result>
0

$$$$
>  <Compound>
C=CCn1nnnc1NC(=O)c1ccc(C(F)(F)F)nc1COCc1ncn(C)n1

>  <Test Target>
corn

>  <Property>
Foliar treatment phytotoxicity, Corn

>  <Result>
0

$$$$
>  <Compound>
Cc1nc(COCc2nc(C(F)(F)F)ccc2C(=O)Nc2nnnn2C)nn1C

>  <Test Target>
corn

>  <Property>
Foliar treatment phytotoxicity, Corn

>  <Result>
2

$$$$
>  <Compound>
CCOC(=O)OC(C)n1nnn(C)c1=NC(=O)c1ccc(C(F)(F)F)nc1CSCc1nnn(C)n1 (centres unmarked)

>  <Test Target>
corn

>  <Property>
Foliar treatment phytotoxicity, Corn

>  <Result>
1

$$$$
>  <Compound>
C#CCn1nnnc1NC(=O)c1ccc(C(F)(F)F)nc1COCc1nc(C(F)(F)F)n(C)n1

>  <Test Target>
corn

>  <Property>
Foliar treatment phytotoxicity, Corn

>  <Result>
0

$$$$
>  <Compound>
CCn1nnnc1NC(=O)c1ccc(C(F)(F)F)nc1COCc1nc(C(F)(F)F)n(C)n1

>  <Test Target>
corn

>  <Property>
Foliar treatment phytotoxicity, Corn

>  <Result>
0

$$$$
>  <Compound>
Cn1nnc(CSCc2nc(C(F)F)ccc2C(=O)Nc2nnnn2C)n1

>  <Test Target>
corn

>  <Property>
Foliar treatment phytotoxicity, Corn

>  <Result>
0

$$$$
>  <Compound>
Cn1nnc(CSCc2nc(C(F)(F)F)ccc2C(=S)Nc2nnnn2C)n1

>  <Test Target>
corn

>  <Property>
Foliar treatment phytotoxicity, Corn

>  <Result>
0

$$$$
>  <Compound>
Cn1nc(COCc2nc(C(F)(F)F)ccc2C(=O)Nc2nnnn2C)nc1CF

>  <Test Target>
corn

>  <Property>
Foliar treatment phytotoxicity, Corn

>  <Result>
2

$$$$
>  <Compound>
Cn1nnc(COCc2nc(C(F)(F)F)ccc2C(=S)Nc2nnnn2C)n1

>  <Test Target>
corn

>  <Property>
Foliar treatment phytotoxicity, Corn

>  <Result>
7

$$$$
>  <Compound>
Cn1nnnc1COc1nc(C(F)(F)F)ccc1C(=O)Nc1nnnn1C

>  <Test Target>
corn

>  <Property>
Foliar treatment phytotoxicity, Corn

>  <Result>
4

$$$$
>  <Compound>
Cn1nc(COCc2nc(C(F)(F)F)ccc2C(=O)Nc2nnnn2C)nc1Cl

>  <Test Target>
corn

>  <Property>
Foliar treatment phytotoxicity, Corn

>  <Result>
0

$$$$
>  <Compound>
Cn1nc(COCc2nc(C(F)(F)F)ccc2C(=O)Nc2nnnn2C)nc1C#N

>  <Test Target>
corn

>  <Property>
Foliar treatment phytotoxicity, Corn

>  <Result>
0

$$$$
>  <Compound>
CON(Cc1nnn(C)n1)c1nc(C(F)(F)F)ccc1C(=O)Nc1nnnn1C

>  <Test Target>
corn

>  <Property>
Foliar treatment phytotoxicity, Corn

>  <Result>
1

$$$$
>  <Compound>
CN(Cc1nnn(C)n1)c1nc(C(F)(F)F)ccc1C(=O)Nc1nnnn1C

>  <Test Target>
corn

>  <Property>
Foliar treatment phytotoxicity, Corn

>  <Result>
0

$$$$
>  <Compound>
Cn1nnc(COCc2nc(C(F)(F)C(F)(F)F)ccc2C(=O)Nc2nnnn2C)n1

>  <Test Target>
corn

>  <Property>
Foliar treatment phytotoxicity, Corn

>  <Result>
1

$$$$
>  <Compound>
CCCn1nnnc1NC(=O)c1ccc(C(F)(F)F)nc1COCc1nnn(CC)n1

>  <Test Target>
corn

>  <Property>
Foliar treatment phytotoxicity, Corn

>  <Result>
0

$$$$
>  <Compound>
Cn1nnnc1NC(=O)c1ccc(C(F)(F)F)nc1COCc1nc(C(F)(F)F)n(C)n1

>  <Test Target>
corn

>  <Property>
Foliar treatment phytotoxicity, Corn

>  <Result>
0

$$$$
>  <Compound>
Cn1nnc(CS(=O)(=O)Cc2nc(C(F)(F)F)ccc2C(=O)Nc2nnnn2C)n1

>  <Test Target>
corn

>  <Property>
Foliar treatment phytotoxicity, Corn

>  <Result>
0

$$$$
>  <Compound>
C=CCn1nnnc1NC(=O)c1ccc(C(F)(F)F)nc1COCc1nc(C(F)(F)F)n(C)n1

>  <Test Target>
corn

>  <Property>
Foliar treatment phytotoxicity, Corn

>  <Result>
0

$$$$
>  <Compound>
Cn1nnnc1NC(=O)c1ccc(C(F)(F)F)nc1OCc1nnnn1C(F)F

>  <Test Target>
corn

>  <Property>
Foliar treatment phytotoxicity, Corn

>  <Result>
2

$$$$
>  <Compound>
Cn1nc(COCc2nc(C(F)(F)F)ccc2C(=O)Nc2nnnn2C)nc1I

>  <Test Target>
corn

>  <Property>
Foliar treatment phytotoxicity, Corn

>  <Result>
0

$$$$
>  <Compound>
Cn1cnc(COCc2nc(C(F)F)ccc2C(=O)Nc2nnnn2C)n1

>  <Test Target>
corn

>  <Property>
Foliar treatment phytotoxicity, Corn

>  <Result>
0

$$$$
>  <Compound>
Cn1nnnc1COCc1nc(C(F)(F)F)ccc1C(=O)Nc1nnnn1C

>  <Test Target>
corn

>  <Property>
Foliar treatment phytotoxicity, Corn

>  <Result>
0

$$$$
>  <Compound>
C=CCn1nnnc1NC(=O)c1ccc(C(F)(F)F)nc1COCc1nnn(CC)n1

>  <Test Target>
corn

>  <Property>
Foliar treatment phytotoxicity, Corn

>  <Result>
0

$$$$
>  <Compound>
COC(=O)OC(C)N(C(=O)c1ccc(C(F)(F)F)nc1COCc1nnn(C)n1)c1nnnn1C (centres unmarked)

>  <Test Target>
corn

>  <Property>
Foliar treatment phytotoxicity, Corn

>  <Result>
0

$$$$
>  <Compound>
Cn1nnc(COCc2nc(C(F)(F)F)ccc2C(=O)N(C(=O)c2ccccc2)c2nnnn2C)n1

>  <Test Target>
corn

>  <Property>
Foliar treatment phytotoxicity, Corn

>  <Result>
6

$$$$
>  <Compound>
Cn1nnc(COCc2nc(C(F)(F)F)ccc2C(=O)Nc2nnnn2C)n1

>  <Test Target>
corn

>  <Property>
Foliar treatment phytotoxicity, Corn

>  <Result>
4

$$$$
